Parameter IC50: see the listing below.
# Assay system: Caspase-1 (Homo sapiens, UniProt P29466)
# Sequence (P29466 120-297 limits assumed): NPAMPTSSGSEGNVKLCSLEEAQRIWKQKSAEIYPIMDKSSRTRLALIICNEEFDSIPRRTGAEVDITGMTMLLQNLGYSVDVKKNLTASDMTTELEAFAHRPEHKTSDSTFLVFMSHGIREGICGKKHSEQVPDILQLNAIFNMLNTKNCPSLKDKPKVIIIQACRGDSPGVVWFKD
# Sequence (P29466 317-404 limits assumed): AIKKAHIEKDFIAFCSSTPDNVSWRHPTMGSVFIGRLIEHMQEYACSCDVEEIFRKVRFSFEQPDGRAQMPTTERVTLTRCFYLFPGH

C[C@H](NC(=O)C(=O)Nc1c(F)cccc1F)C(=O)N[C@@H](CCOC(=O)Oc1ccccc1)C(=O)COc1c(F)c(F)cc(F)c1F	10 to 100 nM
C[C@H](NC(=O)C(=O)Nc1c(F)cccc1F)C(=O)N[C@@H](CCCC(=O)O)C(=O)COc1c(F)c(F)cc(F)c1F	10 to 100 nM
C[C@H](NC(=O)C(=O)Nc1c(F)cccc1F)C(=O)N[C@@H](CCC(=O)O)C(=O)COc1ccnc(C(F)(F)F)n1	≤ 10 nM
CC(C)(NC(=O)C(=O)Nc1c(F)cccc1F)C(=O)N[C@@H](CCC(=O)O)C(=O)COc1c(F)c(F)cc(F)c1F	≤ 10 nM
COc1ccccc1NC(=O)C(=O)N[C@@H](C)C(=O)N[C@@H](CCC(=O)O)C(=O)COc1c(F)c(F)cc(F)c1F	≤ 10 nM
C[C@H](NC(=O)C(=O)Nc1cccnc1)C(=O)N[C@@H](CCC(=O)O)C(=O)COc1c(F)c(F)cc(F)c1F	≤ 10 nM
C[C@H](NC(=O)C(=O)Nc1ccccn1)C(=O)N[C@@H](CCC(=O)O)C(=O)COc1c(F)c(F)cc(F)c1F	≤ 10 nM
C[C@H](NC(=O)C(=O)Nc1c(F)cccc1F)C(=O)N[C@@H](CCC(=O)O)C(=O)COc1cc(C(F)(F)F)nc(C(F)(F)F)n1	≤ 10 nM
C[C@H](NC(=O)C(=O)Nc1c(F)cccc1F)C(=O)N[C@@H](CCOC(=O)c1ccccc1)C(=O)COc1c(F)c(F)cc(F)c1F	100 to 1000 nM
O=C(O)CC[C@H](NC(=O)CNC(=O)C(=O)Nc1c(F)cccc1F)C(=O)COc1c(F)c(F)cc(F)c1F	≤ 10 nM

Kindly state the measured IC50 obtained for `C[C@H](NC(=O)C(=O)Nc1cccc(-c2nnn[nH]2)c1)C(=O)N[C@@H](CCC(=O)O)C(=O)COc1c(F)c(F)cc(F)c1F` with Caspase-1 (Homo sapiens, UniProt P29466).
≤ 10 nM

Kindly state the measured IC50 obtained for `Cc1ccccc1NC(=O)C(=O)N[C@@H](C)C(=O)N[C@@H](CCC(=O)O)C(=O)COc1c(F)c(F)cc(F)c1F` with Caspase-1 (Homo sapiens, UniProt P29466).
≤ 10 nM
